Test Description: small-molecule microarray binders of probe aDKK1, primary screen, biochemical, biotinylated probe, 635/667 nm fluorescence (AID 1099);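 further: score merges 667nm spot fluorescence with signal to noise across triplicate slides; reference of the scale not given here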
Measurement Setup: higher = more signal
Use 0.4 as the dividing line for composite z-score, with the line itself on the Y side and lower values as N.

-- ask Dear colleague, could you confirm whether O=C1C[C@]2(c3ccc([N+](=O)[O-])cc3)C(=O)N(CCN3CCOCC3)c3cc(CO)ccc3[C@H]2N1C1CCCCC1 has composite z-score at or above 0.4?
-- reply Y

====

Test Description: P. aeruginosa biofilm formation inhibitors, primary screen, PAO1 strain, BacTiter-Glo luminescence, LB-PBS (AID 1144)
Measurement Setup: 12 h, higher = more signal
Param threshold (-1) applies to z-score; output Criterion met when value >= threshold, Criterion not met when value < threshold.

Solved entries (count: 3):
Compound: CC1CC/C=C\[C@H]2OC34C=CCN(Cn5nnc6ccccc65)C(=O)[C@H]3N(C(CO)C(C)C)C(=O)[C@@H]4C2C(=O)O1 (some centres not stated)
Cat: Criterion met

Compound: CC(C)C[C@H]1NC(=O)[C@@]23C(=O)N[C@@H](Cc4ccccc4)C2[C@H](C)[C@@]2(C)O[C@H]2C3/C=C/C/C=C\CNC(=O)[C@H](Cc2ccccc2)NC1=O (some centres not stated)
Cat: Criterion met

Compound: C=CCN1C(=O)[C@]2(O[C@H](CCO)[C@@H]([Si](C)(C)c3ccc(OC)cc3)[C@@H]2C)c2cc(N3CCCCC3=O)ccc21
Cat: Criterion met

-- ask Test whether the compound CC[C@@H]1C=C(C(=O)O)[C@H](c2ccco2)N1S(=O)(=O)c1ccc(C)cc1 records z-score of -1 or higher.
-- reply Criterion met

-- ask Record N#Cc1ccc(NN2C(C(O)c3c(F)cccc3Cl)C=CC3C(=O)N(c4ccccc4)C(=O)C32)cc1 (configuration not stated) ; criterion: z-score no lower than -1. Met?
-- reply Criterion not met

====

Field: composite z-score. Provide a value for each of the molecules that follow.
Measured Target: Torsin-1A-interacting protein 2 (Homo sapiens)
Test Description: LULL1 binders on small-molecule microarray, primary screen, cell lysate, human LULL1 lysate, 635/667 nm fluorescence (AID 1092);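 further: probe is lysate of COS7 cells overexpressing human LULL1; score merges per-feature 667 nm fluorescence with signal-to-noise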
Measurement Setup: hLULL1 lysate binding, 635 nm fluorescence, higher = more signal
One number for each entry.

A selection of reference data follows.
Molecule: CCCCC=C[C@@H](NC(=O)Oc1cccc(C(F)(F)F)c1)c1ccccc1
Result Number: 0.277
--
Molecule: C=CCN1C(=O)[C@@]2(O[C@@H](CCO)[C@H]([Si](C)(C)c3ccc(OC)cc3)[C@H]2C)c2cc(NC(=O)c3ccc(OC)cc3)ccc21
Result Number: 0.821
--
Molecule: COc1ccc([Si](C)(C)[C@H]2[C@H](CCn3cc([C@H](O)c4ccccc4)nn3)O[C@@]3(C(=O)N(Cc4cccc(N5CCOC5=O)c4)c4ccccc43)[C@@H]2C)cc1
Result Number: 0.872
--
Molecule: COCCOC(=O)N1C(=O)[C@@]2(c3ccccc31)[C@H](c1ccc(O)cc1)N1[C@H](c3ccccc3)[C@H](c3ccccc3)OC(=O)[C@H]1[C@@H]2C(=O)NC[C@H](O)c1ccccc1
Result Number: 2.98

Please give composite z-score for each item listed below.
1. CN(C)C(=O)[C@@]1(Cc2ccccc2)N=C(c2ccc(OCCCO)cc2)O[C@H]1c1ccccc1N=[N+]=[N-]
2. COC(=O)[C@@]1(Cc2ccc(OC)cc2)[C@H]2c3cc(C(=O)N(C)C)n(CCN4CNCC4=O)c3C[C@H]2CN1C(=O)c1ccccc1
3. C=C(COC)/C(=C/C[C@H](OC(=O)c1ccncc1)c1ccc(OCCO)cc1)c1cnc2ccccc2c1
4. Cc1ccc(S[C@]2(C(=O)NCCN3CCOCC3)CC(=O)N(Cc3ccccc3Cl)[C@@H]2c2ccc(CO)cc2)cc1
5. CC[C@@H]1C=C(C(=O)O)[C@H](c2ccco2)N1S(=O)(=O)c1ccc(C)cc1
6. NC(=O)[C@@H]1[C@H]2C(=O)O[C@H](c3ccccc3)[C@H](c3ccccc3)N2[C@H](c2ccc(O)cc2)[C@@]12C(=O)Nc1ccc(C#CC3(O)CCCCCC3)cc12

-- reply
1: 3.3; 2: 0.324; 3: 3.13; 4: 3.07; 5: 0.0172; 6: 2.14

Hi team, please reply with composite z-score for each item in this list.
1. COCCCNC(=O)[C@@]1(Cc2ccccc2N=[N+]=[N-])N=C(c2ccc(OCCCO)cc2)O[C@H]1c1ccccc1N=[N+]=[N-]
2. CCCC[C@@H]1C[C@H]1[C@@H](NC(=O)c1ccco1)c1ccc(C(=O)OC)cc1
3. C=C(/C(=C/C[C@@H](OC(C)=O)c1ccc(OCCO)cc1)c1cnc2ccccc2c1)C(C)C
4. C=CCC(OC(C)=O)[C@@H]1[C@@H](N(Cc2ccc(-c3ccccc3)cc2)C(=O)Cc2ccc(F)cc2)c2cc(OCCCO)ccc2N1C(=O)c1ccc(-c2ccccc2)cc1 (stereo not given in full)
5. CN1C(=O)C2C=CC(C(O)C3CC=CCC3)N(NC(=O)OC(C)(C)C)C2C1=O (stereo not given)

-- reply
3.27
1.93
1.06
-0.404
3.54

// data source = PubChem BioAssay
